TESTED ON: ScErg11p6 × His Y140F (Saccharomyces cerevisiae, UniProt P10614, Y140F)
Construct: full-length Saccharomyces cerevisiae hexahistidine-tagged Erg11p (ScErg11p6 × His)
Sequence (P10614 whole entry Y140F): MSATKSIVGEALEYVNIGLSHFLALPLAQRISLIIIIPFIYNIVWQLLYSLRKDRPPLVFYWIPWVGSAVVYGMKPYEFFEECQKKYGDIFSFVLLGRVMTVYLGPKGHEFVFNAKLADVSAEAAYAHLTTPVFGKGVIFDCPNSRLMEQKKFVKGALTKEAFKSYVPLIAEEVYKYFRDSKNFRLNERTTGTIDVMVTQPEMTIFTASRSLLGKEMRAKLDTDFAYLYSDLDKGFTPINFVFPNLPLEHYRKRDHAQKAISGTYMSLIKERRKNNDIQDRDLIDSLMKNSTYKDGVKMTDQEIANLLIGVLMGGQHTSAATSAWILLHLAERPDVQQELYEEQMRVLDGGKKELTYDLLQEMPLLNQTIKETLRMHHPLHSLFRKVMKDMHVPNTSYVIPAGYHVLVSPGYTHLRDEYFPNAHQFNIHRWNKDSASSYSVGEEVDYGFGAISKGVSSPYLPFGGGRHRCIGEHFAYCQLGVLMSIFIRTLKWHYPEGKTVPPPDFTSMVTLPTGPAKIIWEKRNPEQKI
EXPERIMENT DESCRIPTION: Type II difference spectra triazole binding to affinity purified Y140F mutant enzyme
ASSAY CONTEXT: Y140F enzyme 1 μM, Hill equation fit; IC50 value is denoted as [Azole]0.5
QUANTITY NAME: IC50
# do not omit the unit; it follows the number

IC50 for CCC(C)n1ncn(-c2ccc(N3CCN(c4ccc(OCC5COC(Cn6cncn6)(c6ccc(Cl)cc6Cl)O5)cc4)CC3)cc2)c1=O (stereo not shown) [ITC, itraconazole] is 0.33 µM

IC50 for CC[C@@H]([C@H](C)O)n1ncn(-c2ccc(N3CCN(c4ccc(OC[C@@H]5CO[C@@](Cn6cncn6)(c6ccc(F)cc6F)C5)cc4)CC3)cc2)c1=O [PCZ, posaconazole] is 0.29 µM

IC50 for OC(Cn1cncn1)(Cn1cncn1)c1ccc(F)cc1F [FLC, fluconazole] is 0.33 µM

IC50 for C[C@@H](c1ncncc1F)[C@](O)(Cn1cncn1)c1ccc(F)cc1F [VCZ, voriconazole] is 0.27 µM

---

Would you mind telling me the reported Hill number of each entry?
TESTED ON: ScErg11p6 × His Y140H (Saccharomyces cerevisiae, UniProt P10614, Y140H)
Construct: full-length Saccharomyces cerevisiae hexahistidine-tagged Erg11p (ScErg11p6 × His); made in house; host or cells: Saccharomyces cerevisiae strain AD3ΔScErg11_Y140H (native ERG11 deleted)
Sequence (P10614 whole entry Y140H): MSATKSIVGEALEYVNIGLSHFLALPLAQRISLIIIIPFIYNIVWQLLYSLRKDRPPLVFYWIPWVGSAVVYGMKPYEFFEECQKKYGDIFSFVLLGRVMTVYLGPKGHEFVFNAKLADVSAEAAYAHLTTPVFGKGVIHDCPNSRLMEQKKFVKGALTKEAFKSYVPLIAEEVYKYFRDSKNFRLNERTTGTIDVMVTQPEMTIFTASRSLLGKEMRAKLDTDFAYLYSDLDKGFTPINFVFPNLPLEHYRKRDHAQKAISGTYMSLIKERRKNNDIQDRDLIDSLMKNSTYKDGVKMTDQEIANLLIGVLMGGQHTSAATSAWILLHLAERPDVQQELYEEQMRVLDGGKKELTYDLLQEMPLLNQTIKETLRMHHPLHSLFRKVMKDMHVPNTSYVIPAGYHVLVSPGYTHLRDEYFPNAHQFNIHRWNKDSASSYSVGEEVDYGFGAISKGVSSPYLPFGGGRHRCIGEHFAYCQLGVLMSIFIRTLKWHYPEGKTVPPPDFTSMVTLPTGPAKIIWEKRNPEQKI
EXPERIMENT DESCRIPTION: Type II difference spectra triazole binding to affinity purified Y140H mutant enzyme
ASSAY CONTEXT: Y140H enzyme 1 μM

Reported Hill number (ScErg11p6 × His Y140H (Saccharomyces cerevisiae, UniProt P10614, Y140H)) for entry C[C@@H](c1ncncc1F)[C@](O)(Cn1cncn1)c1ccc(F)cc1F [VCZ, voriconazole] is 1.23

Reported Hill number (ScErg11p6 × His Y140H (Saccharomyces cerevisiae, UniProt P10614, Y140H)) for entry CC[C@@H]([C@H](C)O)n1ncn(-c2ccc(N3CCN(c4ccc(OC[C@@H]5CO[C@@](Cn6cncn6)(c6ccc(F)cc6F)C5)cc4)CC3)cc2)c1=O [PCZ, posaconazole] is 1.57

Reported Hill number (ScErg11p6 × His Y140H (Saccharomyces cerevisiae, UniProt P10614, Y140H)) for entry CCC(C)n1ncn(-c2ccc(N3CCN(c4ccc(OCC5COC(Cn6cncn6)(c6ccc(Cl)cc6Cl)O5)cc4)CC3)cc2)c1=O (stereo not shown) [ITC, itraconazole] is 1.48

Reported Hill number (ScErg11p6 × His Y140H (Saccharomyces cerevisiae, UniProt P10614, Y140H)) for entry OC(Cn1cncn1)(Cn1cncn1)c1ccc(F)cc1F [FLC, fluconazole] is 1.68

---

TESTED ON: ScErg11p6 × His Y140H (Saccharomyces cerevisiae, UniProt P10614, Y140H)
Construct: full-length Saccharomyces cerevisiae hexahistidine-tagged Erg11p (ScErg11p6 × His); made in house; host or cells: Saccharomyces cerevisiae strain AD3ΔScErg11_Y140H (native ERG11 deleted)
EXPERIMENT DESCRIPTION: Type II difference spectra triazole binding to affinity purified Y140H mutant enzyme
ASSAY CONTEXT: Y140H enzyme, Ni-NTA affinity purified
Would you mind telling me the reported ΔAmax of type II difference spectra of each entry?
Kindly provide the number alone.

ΔAmax of type II difference spectra for C[C@@H](c1ncncc1F)[C@](O)(Cn1cncn1)c1ccc(F)cc1F is 0.018

ΔAmax of type II difference spectra for CC[C@@H]([C@H](C)O)n1ncn(-c2ccc(N3CCN(c4ccc(OC[C@@H]5CO[C@@](Cn6cncn6)(c6ccc(F)cc6F)C5)cc4)CC3)cc2)c1=O is 0.016

ΔAmax of type II difference spectra for OC(Cn1cncn1)(Cn1cncn1)c1ccc(F)cc1F is 0.016

ΔAmax of type II difference spectra for CCC(C)n1ncn(-c2ccc(N3CCN(c4ccc(OCC5COC(Cn6cncn6)(c6ccc(Cl)cc6Cl)O5)cc4)CC3)cc2)c1=O (stereo not shown) is 0.016

Source: paper PMC4870556
